- EXPERIMENT NOTES: Toxicity liver stage against HepG2, at 10uM
- Assay type: cell-based
- Design: test concentration 10 uM, cell line HepG2-A16-CD81EGFP
- CONDITION DETAILS: human, HepG2-A16-CD81EGFP cells; read-out: INHIBITION
READOUT LABEL: cytotoxicity at 10 µM (%)
Respond with the bare value in %.

## Task Would you kindly share the measured cytotoxicity at 10 µM for CCOC(=O)CCNC(=O)N1CCCC(CNC(=O)c2ccco2)C1 (stereo unspecified) ?
## Result 14.9

## Task Consider the compound shown here: Cc1ccccc1CN(CCN(C)C)Cc1ncc[nH]1 What is its recorded cytotoxicity at 10 µM?
## Result -7.11

## Task Reported cytotoxicity at 10 µM, compound COc1ccc2[nH]cc(CCNC(=O)C3CCCN(C(C)=O)C3)c2c1 (stereo unspecified) : ____
## Result -5.58

## Task What does the record list as cytotoxicity at 10 µM for COc1ncccc1CNC(=O)c1cc(Cl)ccn1 ?
## Result -7.51

## Task Would you mind telling me what cytotoxicity at 10 µM value was observed for COCCn1cnnc1CNc1cc(C)nc2c(C)c(C)nn12 ?
## Result -0.715

## Task What cytotoxicity at 10 µM value was documented for this compound, O=S(=O)(c1cccnc1)N1CCN(CC(O)c2ccccc2)CC1 (stereo unspecified) ?
## Result 0.871
